# Test system: Staphylococcus aureus
# experiment description: Antibacterial activity against methicillin-[…] Staphylococcus aureus ATCC 33591 by broth microdilution method
# Format: functional
endpoint label: MBC (µg/mL)
Unit µg/mL implied. Number only.

input smiles	units label	MBC
COC(=O)[C@@H]1NC(=O)[C@H]2NC(=O)[C@H](NC(=O)[C@@H]3NC(=O)[C@H]4NC(=O)[C@H](NC(=O)[C@H](n5cc(CO[C@H]6O[C@H](CO)[C@@H](O)[C@H](O)[C@H]6O)nn5)c5ccc(O)c(c5)Oc5cc4cc(O)c5C)[C@H](O)c4ccc(cc4)Oc4cc3cc(c4O)Oc3ccc(cc3)[C@H]2O)c2ccc(O)c(c2)-c2c(O)cc(O)cc21	µg/mL	128
COC(=O)[C@H]1NC(=O)[C@H]2NC(=O)[C@H](NC(=O)[C@@H]3NC(=O)[C@H]4NC(=O)[C@H](NC(=O)[C@H](n5cc(CO[C@@H]6O[C@@H](C)[C@H](O)[C@@H](O)[C@H]6O)nn5)c5ccc(O)c(c5)Oc5cc4cc(O)c5C)[C@H](O)c4ccc(cc4)Oc4cc3cc(c4O)Oc3ccc(cc3)[C@H]2O)c2ccc(O)c(c2)-c2c(O)cc(O)cc21	µg/mL	16

Now, please, on to the next compound.
Item COC(=O)[C@@H]1NC(=O)[C@H]2NC(=O)[C@H](NC(=O)[C@@H]3NC(=O)[C@H]4NC(=O)[C@H](NC(=O)[C@H](n5cc(CO[C@H]6O[C@H](COC(C)=O)[C@@H](O[C@H]7O[C@H](COC(C)=O)[C@@H](OC(C)=O)[C@H](OC(C)=O)[C@H]7OC(C)=O)[C@H](OC(C)=O)[C@H]6OC(C)=O)nn5)c5ccc(O)c(c5)Oc5cc4cc(O)c5C)[C@H](O)c4ccc(cc4)Oc4cc3cc(c4O)Oc3ccc(cc3)[C@H]2O)c2ccc(O)c(c2)-c2c(O)cc(O)cc21 : provide MBC
4

---

# Test system: Influenza B virus
# experiment description: Antiviral activity against influenza B virus assessed as inhibition of viral induced cytopathic effect
# Format: functional, organism-based
Parameter EC50: see the listing below.

In the examples that follow, each entry is paired with its recorded EC50.
compound	EC50
COC(=O)[C@@H]1NC(=O)[C@H]2NC(=O)[C@H](NC(=O)[C@@H]3NC(=O)[C@H]4NC(=O)[C@H](NC(=O)[C@H](n5cc(CO[C@@H]6O[C@@H](C)[C@H](OC(C)=O)[C@@H](OC(C)=O)[C@H]6OC(C)=O)nn5)c5ccc(O)c(c5)Oc5cc4cc(O)c5C)[C@H](O)c4ccc(cc4)Oc4cc3cc(c4O)Oc3ccc(cc3)[C@H]2O)c2ccc(O)c(c2)-c2c(O)cc(O)cc21	> 100 µM
COC(=O)[C@@H]1NC(=O)[C@H]2NC(=O)[C@H](NC(=O)[C@@H]3NC(=O)[C@H]4NC(=O)[C@H](NC(=O)[C@H](n5cc(CO[C@H]6O[C@H](COC(C)=O)[C@@H](OC(C)=O)[C@H](OC(C)=O)[C@@H]6OC(C)=O)nn5)c5ccc(O)c(c5)Oc5cc4cc(O)c5C)[C@H](O)c4ccc(cc4)Oc4cc3cc(c4O)Oc3ccc(cc3)[C@H]2O)c2ccc(O)c(c2)-c2c(O)cc(O)cc21	> 100 µM
NC12CC3CC(CC(C3)C1)C2 [AMANTADINE]	> 500 µM
COC(=O)[C@@H]1NC(=O)[C@H]2NC(=O)[C@H](NC(=O)[C@@H]3NC(=O)[C@H]4NC(=O)[C@H](NC(=O)[C@H](n5cc(CO[C@H]6O[C@H](CO)[C@@H](O[C@H]7O[C@H](CO)[C@@H](O)[C@H](O)[C@H]7O)[C@H](O)[C@H]6O)nn5)c5ccc(O)c(c5)Oc5cc4cc(O)c5C)[C@H](O)c4ccc(cc4)Oc4cc3cc(c4O)Oc3ccc(cc3)[C@H]2O)c2ccc(O)c(c2)-c2c(O)cc(O)cc21	52 µM
CC(N)C12CC3CC(CC(C3)C1)C2 (stereo unspecified) [RIMANTADINE]	> 500 µM

Name the recorded EC50 of the compound listed here: COC(=O)[C@@H]1NC(=O)[C@H]2NC(=O)[C@H](NC(=O)[C@@H]3NC(=O)[C@H]4NC(=O)[C@H](NC(=O)[C@H](n5cc(CO[C@H]6O[C@H](COC(C)=O)[C@@H](O[C@H]7O[C@H](COC(C)=O)[C@@H](OC(C)=O)[C@H](OC(C)=O)[C@H]7OC(C)=O)[C@H](OC(C)=O)[C@H]6OC(C)=O)nn5)c5ccc(O)c(c5)Oc5cc4cc(O)c5C)[C@H](O)c4ccc(cc4)Oc4cc3cc(c4O)Oc3ccc(cc3)[C@H]2O)c2ccc(O)c(c2)-c2c(O)cc(O)cc21
> 100 µM

---

# Tested on: Staphylococcus aureus
# experiment description: Antibacterial activity against methicillin-[…] Staphylococcus aureus ATCC 29213 by broth microdilution method
# Type: functional
Some compounds, each annotated with its measured MIC.
Respond numerically; units are µg/mL and should not be typed.

Consider the worked cases shown below.
input smiles	target entity	MIC, µg/mL
COC(=O)[C@H]1NC(=O)[C@H]2NC(=O)[C@H](NC(=O)[C@@H]3NC(=O)[C@H]4NC(=O)[C@H](NC(=O)[C@H](N=[N+]=[N-])c5ccc(O)c(c5)Oc5cc4cc(O)c5C)[C@H](O)c4ccc(cc4)Oc4cc3cc(c4O)Oc3ccc(cc3)[C@H]2O)c2ccc(O)c(c2)-c2c(O)cc(O)cc21	Staphylococcus aureus	2
COC(=O)[C@@H]1NC(=O)[C@H]2NC(=O)[C@H](NC(=O)[C@@H]3NC(=O)[C@H]4NC(=O)[C@H](NC(=O)[C@H](n5cc(CO[C@H]6O[C@H](CO)[C@@H](O)[C@H](O)[C@H]6NC(C)=O)nn5)c5ccc(O)c(c5)Oc5cc4cc(O)c5C)[C@H](O)c4ccc(cc4)Oc4cc3cc(c4O)Oc3ccc(cc3)[C@H]2O)c2ccc(O)c(c2)-c2c(O)cc(O)cc21	Staphylococcus aureus	2

Write down MIC measured for item COC(=O)[C@H]1NC(=O)[C@H]2NC(=O)[C@H](NC(=O)[C@@H]3NC(=O)[C@H]4NC(=O)[C@H](NC(=O)[C@H](n5cc(CO[C@@H]6O[C@@H](C)[C@H](O)[C@@H](O)[C@H]6O)nn5)c5ccc(O)c(c5)Oc5cc4cc(O)c5C)[C@H](O)c4ccc(cc4)Oc4cc3cc(c4O)Oc3ccc(cc3)[C@H]2O)c2ccc(O)c(c2)-c2c(O)cc(O)cc21
8

---

# Test system: Staphylococcus epidermidis
# experiment description: Antibacterial activity against biofilm positive Staphylococcus epidermidis ATCC 35984
# Format: functional
endpoint label: MIC (µg/mL)
Form entry: value (µg/mL) — number only.

Solved cases (4 shown):
input smiles	target entity	units label	MIC
COC(=O)[C@@H]1NC(=O)[C@H]2NC(=O)[C@H](NC(=O)[C@@H]3NC(=O)[C@H]4NC(=O)[C@H](NC(=O)[C@H](n5cc(CO[C@H]6O[C@H](COC(C)=O)[C@@H](OC(C)=O)[C@H](OC(C)=O)[C@H]6NC(C)=O)nn5)c5ccc(O)c(c5)Oc5cc4cc(O)c5C)[C@H](O)c4ccc(cc4)Oc4cc3cc(c4O)Oc3ccc(cc3)[C@H]2O)c2ccc(O)c(c2)-c2c(O)cc(O)cc21	Staphylococcus epidermidis	µg/mL	8
COC(=O)[C@@H]1NC(=O)[C@H]2NC(=O)[C@H](NC(=O)[C@@H]3NC(=O)[C@H]4NC(=O)[C@H](NC(=O)[C@H](n5cc(CO[C@H]6O[C@H](CO)[C@@H](O)[C@H](O)[C@H]6NC(C)=O)nn5)c5ccc(O)c(c5)Oc5cc4cc(O)c5C)[C@H](O)c4ccc(cc4)Oc4cc3cc(c4O)Oc3ccc(cc3)[C@H]2O)c2ccc(O)c(c2)-c2c(O)cc(O)cc21	Staphylococcus epidermidis	µg/mL	2
COC(=O)[C@@H]1NC(=O)[C@H]2NC(=O)[C@H](NC(=O)[C@@H]3NC(=O)[C@H]4NC(=O)[C@H](NC(=O)[C@H](n5cc(CO[C@H]6O[C@H](CO)[C@@H](O)[C@H](O)[C@@H]6O)nn5)c5ccc(O)c(c5)Oc5cc4cc(O)c5C)[C@H](O)c4ccc(cc4)Oc4cc3cc(c4O)Oc3ccc(cc3)[C@H]2O)c2ccc(O)c(c2)-c2c(O)cc(O)cc21	Staphylococcus epidermidis	µg/mL	4
COC(=O)[C@@H]1NC(=O)[C@H]2NC(=O)[C@H](NC(=O)[C@@H]3NC(=O)[C@H]4NC(=O)[C@H](NC(=O)[C@H](n5cc(CO[C@H]6O[C@H](COC(C)=O)[C@@H](O[C@H]7O[C@H](COC(C)=O)[C@@H](OC(C)=O)[C@H](OC(C)=O)[C@H]7OC(C)=O)[C@H](OC(C)=O)[C@H]6OC(C)=O)nn5)c5ccc(O)c(c5)Oc5cc4cc(O)c5C)[C@H](O)c4ccc(cc4)Oc4cc3cc(c4O)Oc3ccc(cc3)[C@H]2O)c2ccc(O)c(c2)-c2c(O)cc(O)cc21	Staphylococcus epidermidis	µg/mL	4

For the compound COC(=O)[C@@H]1NC(=O)[C@H]2NC(=O)[C@H](NC(=O)[C@@H]3NC(=O)[C@H]4NC(=O)[C@H](NC(=O)[C@H](n5cc(CO[C@@H]6O[C@@H](C)[C@H](OC(C)=O)[C@@H](OC(C)=O)[C@H]6OC(C)=O)nn5)c5ccc(O)c(c5)Oc5cc4cc(O)c5C)[C@H](O)c4ccc(cc4)Oc4cc3cc(c4O)Oc3ccc(cc3)[C@H]2O)c2ccc(O)c(c2)-c2c(O)cc(O)cc21 , report MIC.
4
